Below are IC50 values recorded for Acetylcholinesterase (Homo sapiens).
State the answer as a number, implicitly in nM.

Query: Which IC50 is reported with Acetylcholinesterase (Homo sapiens) for this entry: COc1cc2c(cc1OC)C(NC(=O)CN1CCN(Cc3ccccc3)CC1)c1cnn(-c3ccccc3)c1-2 (stereo unspecified) ?
Result: 2990

Query: Same read-out for COc1cc2c(cc1OC)C(NC(=O)CN1CCN(Cc3ccccc3)CC1)c1cnn(C)c1-2 (stereo unspecified) ?
Result: 1840

Query: Same read-out for O=C(CN1CCN(Cc2ccccc2)CC1)NC1c2cnn(-c3ccccc3)c2-c2c(Br)sc(Br)c21 (stereo unspecified) ?
Result: 870

Query: Same read-out for COc1cc2c(cc1OC)C(NC(=O)CN1CCN(Cc3ccccc3F)CC1)c1cnn(C)c1-2 (stereo unspecified) ?
Result: 2440

Query: Same read-out for Cn1ncc2c1-c1c(Br)sc(Br)c1C2NC(=O)CN1CCN(Cc2ccccc2)CC1 (stereo unspecified) ?
Result: 330

Query: Same read-out for Cn1ncc2c1-c1sccc1C2NC(=O)CN1CCN(Cc2ccccc2)CC1 (stereo unspecified) ?
Result: 930

Query: Same read-out for O=C(CN1CCN(Cc2ccccc2)CC1)NC1c2cn[nH]c2-c2c(Br)sc(Br)c21 (stereo unspecified) ?
Result: 1130

Query: Same read-out for COc1cc2c(cc1OC)C(NC(=O)CN1CCN(Cc3ccccc3F)CC1)c1cnn(-c3ccccc3)c1-2 (stereo unspecified) ?
Result: 2430

Query: Same read-out for O=C(CN1CCN(Cc2ccccc2)CC1)NC1c2cn[nH]c2-c2sccc21 (stereo unspecified) ?
Result: 9180

Query: Same read-out for Cn1ncc2c1-c1sccc1C2NC(=O)CN1CCN(Cc2ccccc2F)CC1 (stereo unspecified) ?
Result: 1320

Query: Same read-out for Cn1ncc2c1-c1c(Br)sc(Br)c1C2NC(=O)CN1CCN(Cc2ccccc2F)CC1 (stereo unspecified) ?
Result: 880

* * *

molecular target: Butyrylcholinesterase (Equus caballus) (UniProt Q9N1N9); test: Inhibition of horse serum BuChE at 10 uM using butyrylthiocholine chloride by spectrophotometry
Parameter measured: inhibition (%)
State the answer as a number, implicitly in %.

# example entries with known answers
| Compound | inhibition, % |
| --- | --- |
| Cn1ncc2c1-c1c(Br)sc(Br)c1C2NC(=O)CN1CCN(Cc2ccccc2F)CC1 (centres undefined) | 30 |
| O=C(CN1CCN(Cc2ccccc2)CC1)NC1c2cnn(-c3ccccc3)c2-c2c(Br)sc(Br)c21 (centres undefined) | 37 |
| COc1cc2c(cc1OC)C(NC(=O)CN1CCN(Cc3ccccc3F)CC1)c1cnn(C)c1-2 (centres undefined) | 1 |

# context switch: different compound, same inhibition
Query: Which inhibition is reported with Butyrylcholinesterase (Equus caballus) (UniProt Q9N1N9) for this entry: COc1cc2c(cc1OC)C(NC(=O)CN1CCN(Cc3ccccc3F)CC1)c1cnn(-c3ccccc3)c1-2 (centres undefined) ?
Result: 8

* * *

Below are IC50 values recorded for Acetylcholinesterase (Electrophorus electricus, UniProt O42275).
State the answer as a number, implicitly in µM.

# example entries with known answers
| Compound | Quantity unit | IC50 |
| --- | --- | --- |
| COc1cc2c(cc1OC)C(NC(=O)CN1CCN(Cc3ccccc3F)CC1)c1cn[nH]c1-2 (stereo not given) | µM | 3.98 |
| Cn1ncc2c1-c1c(Br)sc(Br)c1C2NC(=O)CN1CCN(Cc2ccccc2)CC1 (stereo not given) | µM | 0.1 |
| Cn1ncc2c1-c1sccc1C2NC(=O)CN1CCN(Cc2ccccc2)CC1 (stereo not given) | µM | 1.91 |

Query: Which IC50 is reported with Acetylcholinesterase (Electrophorus electricus, UniProt O42275) for this entry: Cn1ncc2c1-c1c(Br)sc(Br)c1C2NC(=O)CN1CCN(Cc2ccccc2F)CC1 (stereo not given) ?
Result: 0.24

Query: Same read-out for COc1cc2c(cc1OC)C(NC(=O)CN1CCN(Cc3ccccc3)CC1)c1cnn(-c3ccccc3)c1-2 (stereo not given) ?
Result: 1.36

Query: Same read-out for COc1cc2c(cc1OC)C(NC(=O)CN1CCN(Cc3ccccc3)CC1)c1cnn(C)c1-2 (stereo not given) ?
Result: 1.28

Query: Same read-out for O=C(CN1CCN(Cc2ccccc2F)CC1)NC1c2cn[nH]c2-c2sccc21 (stereo not given) ?
Result: 4.59

Query: Same read-out for O=C(CN1CCN(Cc2ccccc2)CC1)NC1c2cnn(-c3ccccc3)c2-c2c(Br)sc(Br)c21 (stereo not given) ?
Result: 0.29
